The reported numbers originate from patent US20240301031A1.

target: T1, human BAFF (10056-HNCH, Sino biological) (human, UniProt Q9Y275 134-285); test: ELISA, BAFF coated, fusion protein titrated
T1 construct: Bought protein
pEC50: −log10 of the molar value.
pEC50: recorded values
measured property: pEC50

[
  {
    "binder": "TACI-10 Fc (Fc fusion, TACI-9 truncated at the C-terminus by 1 amino acid L, fused directly to Fc; two identical polypeptides) SLSCRKEQGKFYDHLLRDCISCASICGQHPKQCAYFCENKDKTHTCPPCPAPEAEGAPSVFLFPPKPKDTLMISRTPEVTCVVVDVSHEDPEVKFNWYVDGVEVHNAKTKPREEQYNSTYRVVSVLTVLHQDWLNGKEYKCKVSNKALPSSIEKTISKAKGQPREPQVYTLPPSRDELTKNQVSLTCLVKGFYPSDIAVEWESNGQPENNYKTTPPVLDSDGSFFLYSKLTVDKSRWQQGNVFSCSVMHEALHNHYTQKSLSLSPGK",
    "measured property": "pEC50",
    "test result": 9.25
  },
  {
    "binder": "TACI-21Fc (Fc fusion, Fused directly to Fc; two identical polypeptides) EQGKFYDHLLRDCISCASICGQHPKQCAYFCEDKTHTCPPCPAPEAEGAPSVFLFPPKPKDTLMISRTPEVTCVVVDVSHEDPEVKFNWYVDGVEVHNAKTKPREEQYNSTYRVVSVLTVLHQDWLNGKEYKCKVSNKALPSSIEKTISKAKGQPREPQVYTLPPSRDELTKNQVSLTCLVKGFYPSDIAVEWESNGQPENNYKTTPPVLDSDGSFFLYSKLTVDKSRWQQGNVFSCSVMHEALHNHYTQKSLSLSPGK",
    "measured property": "pEC50",
    "test result": 8.01
  },
  {
    "binder": "TACI-20Fc (Fc fusion, Fused directly to Fc; two identical polypeptides) KEQGKFYDHLLRDCISCASICGQHPKQCAYFCEDKTHTCPPCPAPEAEGAPSVFLFPPKPKDTLMISRTPEVTCVVVDVSHEDPEVKFNWYVDGVEVHNAKTKPREEQYNSTYRVVSVLTVLHQDWLNGKEYKCKVSNKALPSSIEKTISKAKGQPREPQVYTLPPSRDELTKNQVSLTCLVKGFYPSDIAVEWESNGQPENNYKTTPPVLDSDGSFFLYSKLTVDKSRWQQGNVFSCSVMHEALHNHYTQKSLSLSPGK",
    "measured property": "pEC50",
    "test result": 8.14
  },
  {
    "binder": "TACI-14 Fc (Fc fusion, Fused directly to Fc; two identical polypeptides) SLSCRKEQGKFYDHLLRDCISCASICGQHPKQCAYFDKTHTCPPCPAPEAEGAPSVFLFPPKPKDTLMISRTPEVTCVVVDVSHEDPEVKFNWYVDGVEVHNAKTKPREEQYNSTYRVVSVLTVLHQDWLNGKEYKCKVSNKALPSSIEKTISKAKGQPREPQVYTLPPSRDELTKNQVSLTCLVKGFYPSDIAVEWESNGQPENNYKTTPPVLDSDGSFFLYSKLTVDKSRWQQGNVFSCSVMHEALHNHYTQKSLSLSPGK",
    "measured property": "pEC50",
    "test result": 7.19
  },
  {
    "binder": "TACI-19Fc (Fc fusion, Fused directly to Fc; two identical polypeptides) RKEQGKFYDHLLRDCISCASICGQHPKQCAYFCEDKTHTCPPCPAPEAEGAPSVFLFPPKPKDTLMISRTPEVTCVVVDVSHEDPEVKFNWYVDGVEVHNAKTKPREEQYNSTYRVVSVLTVLHQDWLNGKEYKCKVSNKALPSSIEKTISKAKGQPREPQVYTLPPSRDELTKNQVSLTCLVKGFYPSDIAVEWESNGQPENNYKTTPPVLDSDGSFFLYSKLTVDKSRWQQGNVFSCSVMHEALHNHYTQKSLSLSPGK",
    "measured property": "pEC50",
    "test result": 8.30
  },
  {
    "binder": "TACI-16Fc (Fc fusion, Fused directly to Fc; two identical polypeptides) LSCRKEQGKFYDHLLRDCISCASICGQHPKQCAYFCEDKTHTCPPCPAPEAEGAPSVFLFPPKPKDTLMISRTPEVTCVVVDVSHEDPEVKFNWYVDGVEVHNAKTKPREEQYNSTYRVVSVLTVLHQDWLNGKEYKCKVSNKALPSSIEKTISKAKGQPREPQVYTLPPSRDELTKNQVSLTCLVKGFYPSDIAVEWESNGQPENNYKTTPPVLDSDGSFFLYSKLTVDKSRWQQGNVFSCSVMHEALHNHYTQKSLSLSPGK",
    "measured property": "pEC50",
    "test result": 9.22
  },
  {
    "binder": "TACI-11 Fc (Fc fusion, TACI-9 truncated at the C-terminus by 2 amino acids KL, fused directly to Fc; two identical polypeptides) SLSCRKEQGKFYDHLLRDCISCASICGQHPKQCAYFCENDKTHTCPPCPAPEAEGAPSVFLFPPKPKDTLMISRTPEVTCVVVDVSHEDPEVKFNWYVDGVEVHNAKTKPREEQYNSTYRVVSVLTVLHQDWLNGKEYKCKVSNKALPSSIEKTISKAKGQPREPQVYTLPPSRDELTKNQVSLTCLVKGFYPSDIAVEWESNGQPENNYKTTPPVLDSDGSFFLYSKLTVDKSRWQQGNVFSCSVMHEALHNHYTQKSLSLSPGK",
    "measured property": "pEC50",
    "test result": 9.23
  },
  {
    "binder": "TACI-17Fc (Fc fusion, Fused directly to Fc; two identical polypeptides) SCRKEQGKFYDHLLRDCISCASICGQHPKQCAYFCEDKTHTCPPCPAPEAEGAPSVFLFPPKPKDTLMISRTPEVTCVVVDVSHEDPEVKFNWYVDGVEVHNAKTKPREEQYNSTYRVVSVLTVLHQDWLNGKEYKCKVSNKALPSSIEKTISKAKGQPREPQVYTLPPSRDELTKNQVSLTCLVKGFYPSDIAVEWESNGQPENNYKTTPPVLDSDGSFFLYSKLTVDKSRWQQGNVFSCSVMHEALHNHYTQKSLSLSPGK",
    "measured property": "pEC50",
    "test result": 9.00
  },
  {
    "binder": "TACI-9 Fc (Fc fusion, TACI positions 68-108, no mutation, fused directly to Fc; two identical polypeptides) SLSCRKEQGKFYDHLLRDCISCASICGQHPKQCAYFCENKLDKTHTCPPCPAPEAEGAPSVFLFPPKPKDTLMISRTPEVTCVVVDVSHEDPEVKFNWYVDGVEVHNAKTKPREEQYNSTYRVVSVLTVLHQDWLNGKEYKCKVSNKALPSSIEKTISKAKGQPREPQVYTLPPSRDELTKNQVSLTCLVKGFYPSDIAVEWESNGQPENNYKTTPPVLDSDGSFFLYSKLTVDKSRWQQGNVFSCSVMHEALHNHYTQKSLSLSPGK",
    "measured property": "pEC50",
    "test result": 9.31
  }
]
